Give measured z-score for each item. Keep answers brief.
- PROCEDURE_DETAILS: compound effects on multiple myeloma cell viability – MM1S, calcein-AM fluorescence, 48 h, basal, profiling panel (AID 1165);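 further: viability of MM1S multiple myeloma cells under basal unstimulated conditions; test concentration not given here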
- ASSAY_SETUP: higher = more signal

In: Quickly give me recorded z-score for CCCCN1CC=CC23O[C@@H]4/C=C\CCCOC(=O)C4[C@H]2C(=O)N(CCO)[C@@H]3C1=O (stereo not given in full)
Out: 1.04

In: Quickly give me recorded z-score for "C=CC[C@@H](OC(=O)Nc1ccc(OC)cc1)c1ccc(O)c(F)c1"
Out: -2.15

In: Quickly give me recorded z-score for "C=CCNC(=O)[C@@H]1[C@H]2C(=O)O[C@H](c3ccccc3)[C@H](c3ccccc3)N2[C@H](c2ccccc2OCCO)[C@@]12C(=O)Nc1ccc(C#CCC(C(=O)OC)C(=O)OC)cc12"
Out: -3.28

In: Quickly give me recorded z-score for "COc1ccc([C@H]2OC[C@@H]3C[C@H](Cc4ccccc4)C(=O)N32)cc1"
Out: 0.191

In: Quickly give me recorded z-score for "COc1ccc(CCNC(=O)[C@@H]2c3ccccc3C(=O)N(C3CCCCC3)[C@H]2c2ccc(CO)cc2)cc1"
Out: 0.05

In: Quickly give me recorded z-score for "CCOC(=O)C[C@H]1[C@H](OC(=O)c2ccccc2-c2ccccc2)[C@@H](NC(=O)c2ccc3ccccc3n2)c2cc(OCCCO)ccc2N1C(=O)Cc1ccc(OC)cc1"
Out: 0.0554

In: Quickly give me recorded z-score for "COc1ccc([Si](C)(C)[C@@H]2[C@@H](CCO)O[C@]3(C(=O)N(Cc4ccccc4)c4ccc(N5C(=O)c6cccc7cccc5c67)cc43)[C@H]2C)cc1"
Out: -0.61

In: Quickly give me recorded z-score for CC(C)C(CO)N1C(=O)[C@@H]2C3C(=O)OCCC/C=C\[C@H]3OC23C=CCN(c2ccc4ccccc4c2)C(=O)[C@@H]13 (stereo not given in full)
Out: 0.292

In: Quickly give me recorded z-score for "CCOC(=O)C[C@H]1[C@H](OC(=O)Cc2ccc3c(c2)OCO3)[C@@H](NC(=O)c2ccc3ccccc3n2)c2cc(OCCCO)ccc2N1C(=O)c1ccc2ccccc2n1"
Out: -1.01

In: Quickly give me recorded z-score for "COC(=O)C/C=C/C[C@]1(O)C(=O)N(C)c2ccccc21"
Out: 0.672

In: Quickly give me recorded z-score for O=C1OCCC=C[C@H]2OC34C=CCN(c5ccc6ccccc6c5)C(=O)[C@H]3N(CCCO)C(=O)[C@@H]4C12 (stereo not given in full)
Out: 0.441

In: Quickly give me recorded z-score for "C=CCOC(=O)[C@@]1(Cc2ccccc2)C[C@H]2CO[C@H](c3ccc(OC)cc3)N2C1=O"
Out: -0.657

In: Quickly give me recorded z-score for "COc1ccc([Si](C)(C)[C@@H]2[C@@H](CCO)O[C@]3(C(=O)N(Cc4ccccc4)c4ccc(N5CCOC5=O)cc43)[C@H]2C)cc1"
Out: -2.34

In: Quickly give me recorded z-score for "[N-]=[N+]=Nc1ccccc1C[C@]1(C(=O)NCCN2CCOCC2)COC(c2ccc(OCCCO)cc2)=N1"
Out: 0.534

In: Quickly give me recorded z-score for "COCC(=C=CC[C@H](O)c1ccccc1OCCO)C[C@H](O)c1ccccn1"
Out: 0.943
